# Tested on: Mythimna separata
# assayComment: Insecticidal activity, spray on pre-infested radish plants: Mythimna separata
# Type: in vivo
# experimentalConditions: Mythimna separata, 144 h; dose 0.1 ppm, spray, 6 days; read-out: fatality rate on Mythimna separata
property: pest or weed control at 0.1 ppm

>>> df
                                   molecule  result
0  Cc1cc(C2=NOC(c3cc(F)c(F)c(F)c3)(C(F)(F)F)C2)ccc1C(=O)NCc1ncc(Cl)cc1Cl (stereo not drawn)   > 80%
1  Cc1cc(C2=NOC(c3cc(F)c(F)c(F)c3)(C(F)(F)F)C2)ccc1C(=O)NCc1cnc(Cl)cc1Cl (stereo not drawn)   > 80%
2  Cc1cc(C2=NOC(c3cc(F)c(F)c(F)c3)(C(F)(F)F)C2)ccc1C(=O)NCCc1ncc(C(F)(F)F)cc1Cl (stereo not drawn)   > 80%
3  Cc1cc(C2=NOC(c3cc(F)c(F)c(F)c3)(C(F)(F)F)C2)ccc1C(=O)NCc1cnc(Cl)cc1C(F)(F)F (stereo not drawn)   > 80%
4  Cc1cc(C2=NOC(c3cc(F)c(F)c(F)c3)(C(F)(F)F)C2)ccc1C(=O)NCCc1ccc(Cl)nc1 (stereo not drawn)   > 80%
5  Cc1cc(C2=NOC(c3cc(F)c(F)c(F)c3)(C(F)(F)F)C2)ccc1C(=O)NCc1ncccc1Cl (stereo not drawn)   > 80%
6  Cc1cc(C2=NOC(c3cc(F)c(F)c(F)c3)(C(F)(F)F)C2)ccc1C(=O)NCc1ccc(Cl)nc1 (stereo not drawn)   > 80%
7  Cc1cc(C2=NOC(c3cc(F)c(F)c(F)c3)(C(F)(F)F)C2)ccc1C(=O)NCc1ncc(C(F)(F)F)cc1Cl (stereo not drawn)   > 80%
8  Cc1cc(C2=NOC(c3cc(F)c(F)c(F)c3)(C(F)(F)F)C2)ccc1C(=O)NCCc1cnccc1C(F)(F)F (stereo not drawn)   > 80%

====

# System: Tetranychus cinnabarinus
# assayComment: Acaricidal activity, slide immersion of female adult mites: Tetranychus cinnabarinus
# Format: in vivo
# experimentalConditions: 24 h, read-out: fatality rate on Tetranychus cinnabarinus
property: pest or weed control at 25 ppm

>>> df
                                   molecule        targetortestsystem  result
0  Cc1cc(C2=NOC(c3cc(Cl)c(F)c(Cl)c3)(C(F)(F)F)C2)ccc1C(=O)NCCc1ccc(Cl)nc1 (stereo not drawn)  Tetranychus cinnabarinus   > 80%
1  Cc1cc(C2=NOC(c3cc(Cl)c(F)c(Cl)c3)(C(F)(F)F)C2)ccc1C(=O)NCc1cnc(Cl)cc1Cl (stereo not drawn)  Tetranychus cinnabarinus   > 80%
2  Cc1cc(C2=NOC(c3cc(Cl)c(F)c(Cl)c3)(C(F)(F)F)C2)ccc1C(=O)NCc1ccc(Cl)nc1 (stereo not drawn)  Tetranychus cinnabarinus   > 80%

====

# Test system: Pieris rapae
# assayComment: Insecticidal activity, spray on pre-infested radish plants: Pieris rapae
# Assay type: in vivo
# experimentalConditions: 144 h, read-out: fatality rate on Pieris rapae
property: pest or weed control at 0.1 ppm

>>> print(df.to_string())
                                   molecule                         property  result
0  Cc1cc(C2=NOC(c3cc(Cl)c(F)c(Cl)c3)(C(F)(F)F)C2)ccc1C(=O)NCc1ncccc1Cl (stereo not drawn)  pest or weed control at 0.1 ppm   > 80%
1  Cc1cc(C2=NOC(c3cc(Cl)c(F)c(Cl)c3)(C(F)(F)F)C2)ccc1C(=O)NCCc1ccc(Cl)nc1 (stereo not drawn)  pest or weed control at 0.1 ppm   > 80%
2  Cc1cc(C2=NOC(c3cc(Cl)c(F)c(Cl)c3)(C(F)(F)F)C2)ccc1C(=O)NCCc1ncc(C(F)(F)F)cc1Cl (stereo not drawn)  pest or weed control at 0.1 ppm   > 80%

====

# Test system: Plutella xylostella
# assayComment: Insecticidal activity, spray on pre-infested radish plants: Plutella xylostella
# Assay type: in vivo
# experimentalConditions: 1 ppm, Table 3
property: Fatality rate on Plutella xylostella (%)

>>> print(df.to_string())
                                   molecule   targetortestsystem  result
0  Cc1cc(C2=NOC(c3cc(Cl)c(F)c(Cl)c3)(C(F)(F)F)C2)ccc1C(=O)NCc1ccc(Cl)nc1 (centres unmarked) [Compound 1]  Plutella xylostella     100
1  Cc1cc(C2=NOC(c3cc(F)c(F)c(F)c3)(C(F)(F)F)C2)ccc1C(=O)NCc1ncc(C(F)(F)F)cc1Cl (centres unmarked) [Compound 10]  Plutella xylostella     100
2  Cc1cc(C2=NOC(c3cc(Cl)cc(Cl)c3)(C(F)(F)F)C2)ccc1C(=O)NCc1ccc(Cl)nc1 (centres unmarked) [CK1, reference compound]  Plutella xylostella      80
3  Cc1cc(C2=NOC(c3cc(F)c(F)c(F)c3)(C(F)(F)F)C2)ccc1C(=O)NCc1ccc(Cl)nc1 (centres unmarked) [Compound 2]  Plutella xylostella     100
4  Cc1cc(C2=NOC(c3cc(Cl)c(F)c(Cl)c3)(C(F)(F)F)C2)ccc1C(=O)NCc1ncc(C(F)(F)F)cc1Cl (centres unmarked) [Compound 9]  Plutella xylostella     100

====

# System: Chilo suppressalis
# assayComment: Insecticidal activity, spray on pre-infested radish plants: Chilo suppressalis
# Type: in vivo
# experimentalConditions: 0.1 ppm, Table 3
property: Fatality rate on Chilo suppressalis (%)

>>> print(df.to_string())
                                   molecule  result
0  Cc1cc(C2=NOC(c3cc(F)c(F)c(F)c3)(C(F)(F)F)C2)ccc1C(=O)NCc1ncc(C(F)(F)F)cc1Cl (centres unmarked)      85
1  Cc1cc(C2=NOC(c3cc(Cl)c(F)c(Cl)c3)(C(F)(F)F)C2)ccc1C(=O)NCc1ccc(Cl)nc1 (centres unmarked)      90
2  Cc1cc(C2=NOC(c3cc(Cl)c(F)c(Cl)c3)(C(F)(F)F)C2)ccc1C(=O)NCc1ncc(C(F)(F)F)cc1Cl (centres unmarked)      95
3  Cc1cc(C2=NOC(c3cc(F)c(F)c(F)c3)(C(F)(F)F)C2)ccc1C(=O)NCc1ccc(Cl)nc1 (centres unmarked)      80
4  Cc1cc(C2=NOC(c3cc(Cl)cc(Cl)c3)(C(F)(F)F)C2)ccc1C(=O)NCc1ccc(Cl)nc1 (centres unmarked) [CK1, reference compound]       0

====

# Test system: Chilo suppressalis
# assayComment: Insecticidal activity, spray on pre-infested radish plants: Chilo suppressalis
# Type: in vivo
# experimentalConditions: Chilo suppressalis, 144 h, read-out: fatality rate on Chilo suppressalis
The entries below are paired with their reported pest or weed control at 0.1 ppm.
property: pest or weed control at 0.1 ppm

>>> df
                                   compound  result
0  Cc1cc(C2=NOC(c3cc(Cl)c(F)c(Cl)c3)(C(F)(F)F)C2)ccc1C(=O)NCc1cnc(Cl)cc1C(F)(F)F (stereo not drawn)   > 80%
1  Cc1cc(C2=NOC(c3cc(Cl)c(F)c(Cl)c3)(C(F)(F)F)C2)ccc1C(=O)NCc1cnccc1C(F)(F)F (stereo not drawn)   > 80%
2  Cc1cc(C2=NOC(c3cc(Cl)c(F)c(Cl)c3)(C(F)(F)F)C2)ccc1C(=O)NCCc1cnccc1C(F)(F)F (stereo not drawn)   > 80%

====

The entries below are paired with their reported pest or weed control at 0.1 ppm.
# System: Plutella xylostella
# assayComment: Insecticidal activity, spray on pre-infested radish plants: Plutella xylostella
# Type: in vivo
# experimentalConditions: Plutella xylostella, 144 h, read-out: fatality rate on Plutella xylostella
property: pest or weed control at 0.1 ppm

In [3]: df
Out[3]:
                                   compound   targetortestsystem                         property  result
0  Cc1cc(C2=NOC(c3cc(Cl)c(F)c(Cl)c3)(C(F)(F)F)C2)ccc1C(=O)NCc1ncccc1Cl (stereo not drawn)  Plutella xylostella  pest or weed control at 0.1 ppm   > 80%
1  Cc1cc(C2=NOC(c3cc(Cl)c(F)c(Cl)c3)(C(F)(F)F)C2)ccc1C(=O)NCCc1ccc(Cl)nc1 (stereo not drawn)  Plutella xylostella  pest or weed control at 0.1 ppm   > 80%
2  Cc1cc(C2=NOC(c3cc(Cl)c(F)c(Cl)c3)(C(F)(F)F)C2)ccc1C(=O)NCc1ncc(Cl)cc1Cl (stereo not drawn)  Plutella xylostella  pest or weed control at 0.1 ppm   > 80%

====

The entries below are paired with their reported Fatality rate on Mythimna separata (%).
# System: Mythimna separata
# assayComment: Insecticidal activity, spray on pre-infested radish plants: Mythimna separata
# Format: in vivo
# experimentalConditions: 0.1 ppm, Table 3
property: Fatality rate on Mythimna separata (%)

In [3]: df
Out[3]:
                                   compound  result
0  Cc1cc(C2=NOC(c3cc(F)c(F)c(F)c3)(C(F)(F)F)C2)ccc1C(=O)NCc1ccc(Cl)nc1 (centres unmarked) [Compound 2]      85
1  Cc1cc(C2=NOC(c3cc(Cl)cc(Cl)c3)(C(F)(F)F)C2)ccc1C(=O)NCc1ccc(Cl)nc1 (centres unmarked) [CK1, reference compound]      10
2  Cc1cc(C2=NOC(c3cc(F)c(F)c(F)c3)(C(F)(F)F)C2)ccc1C(=O)NCc1ncc(C(F)(F)F)cc1Cl (centres unmarked) [Compound 10]      85
3  Cc1cc(C2=NOC(c3cc(Cl)c(F)c(Cl)c3)(C(F)(F)F)C2)ccc1C(=O)NCc1ncc(C(F)(F)F)cc1Cl (centres unmarked) [Compound 9]     100
4  Cc1cc(C2=NOC(c3cc(Cl)c(F)c(Cl)c3)(C(F)(F)F)C2)ccc1C(=O)NCc1ccc(Cl)nc1 (centres unmarked) [Compound 1]      95
